Ref: the supplement of paper PMC10567573

B1: NECAB1 (parent)
chain: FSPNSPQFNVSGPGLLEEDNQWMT

Variants of: B1
Assay: protein stability index of a GFP-peptide fusion (GPS, HEK-293T) (PSI 1-6); higher = more stable;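 also: lentivirally expressed fusions sorted by FACS into six bins by GFP to DsRed ratio, PSI derived from sequencing read proportions per bin multiplied by bin number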
Settings: c terminus: a fixed tail appended
protein stability index below 3 gives Condition not met; protein stability index at or above it gives Condition met.

Answered examples (5):
1. D19Q : Condition not met
2. F8M : Condition met
3. G12C : Condition not met
4. Q21C : Condition not met
5. P3H : Condition met

Req: Is reported protein stability index greater than or equal to 3 here: `D19Y`
Resp: Condition not met

Req: Test whether the variant `E17L` records protein stability index of 3 or higher.
Resp: Condition not met

Req: Is protein stability index at least 3? Consider `N4Q`
Resp: Condition not met

Req: Hi, just wondering whether `G14N` shows protein stability index of 3 or higher.
Resp: Condition not met
